system: RNA polymerase; experiment: relative enzymatic activity vs untreated control (fraction); higher = less inhibition; settings: 100 µM; incubation time: 2 h at 37 C
Reported relative enzymatic activity values follow for various molecules

[
  {
    "molecule": "CC(O)C1C(=O)N2C(C(=O)O)=C(SC3CNC(C(=O)N(C)C)C3)C(C)C12 (stereo unspecified)",
    "relative enzymatic activity": 1.09
  },
  {
    "molecule": "CCOC(=O)OC(C)OC(=O)C1N2C(=O)C(NC(=O)C(N)c3ccccc3)C2SC1(C)C.Cl (stereo unspecified)",
    "relative enzymatic activity": 0.803
  },
  {
    "molecule": "CN1CCN(c2c(F)cc3c(=O)c(C(=O)O)cn4c3c2OCN4C)CC1",
    "relative enzymatic activity": 0.816
  },
  {
    "molecule": "Cc1nnc(SCC2=C(C(=O)O)N3C(=O)[C@@H](NC(=O)Cn4cnnn4)[C@H]3SC2)s1",
    "relative enzymatic activity": 0.862
  },
  {
    "molecule": "C=C1c2cccc(O)c2C(=O)C2=C(O)C3(O)C(=O)C(C(N)=O)=C(O)C(N(C)C)C3C(O)C12.Cl (stereo unspecified)",
    "relative enzymatic activity": 0.052
  },
  {
    "molecule": "CC1CCC2(C)C(C=O)=CCCC2C1(C)CC1OC(O)C(=O)C12CO2 (stereo unspecified)",
    "relative enzymatic activity": 1.06
  }
]

Provenance of the data: the supplement of paper PMC9446081
